measured.target: T1, mouse PRLR with an HA tag on HEK293 cells (mouse, UniProt Q08501 20-608)
T1 construct: whole, on cells; also called HEK293/mPRLR; rodent PRLR; not shown: HA tag
T1 sequence (looked up): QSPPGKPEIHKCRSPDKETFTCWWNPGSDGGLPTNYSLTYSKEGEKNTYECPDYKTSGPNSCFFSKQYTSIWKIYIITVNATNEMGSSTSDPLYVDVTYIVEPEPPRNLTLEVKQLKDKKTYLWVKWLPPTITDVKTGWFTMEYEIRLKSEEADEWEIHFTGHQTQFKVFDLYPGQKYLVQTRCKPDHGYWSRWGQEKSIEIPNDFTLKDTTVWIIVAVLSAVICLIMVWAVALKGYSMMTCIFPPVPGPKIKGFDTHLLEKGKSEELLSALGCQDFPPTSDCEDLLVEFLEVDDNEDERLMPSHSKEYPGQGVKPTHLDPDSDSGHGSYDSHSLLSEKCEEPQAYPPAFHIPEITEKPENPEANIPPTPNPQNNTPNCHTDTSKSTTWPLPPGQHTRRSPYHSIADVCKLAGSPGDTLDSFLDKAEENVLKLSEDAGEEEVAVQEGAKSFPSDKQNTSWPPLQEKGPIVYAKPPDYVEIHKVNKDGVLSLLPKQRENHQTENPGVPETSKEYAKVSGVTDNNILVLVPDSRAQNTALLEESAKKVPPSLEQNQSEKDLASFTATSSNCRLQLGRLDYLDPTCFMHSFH
experiment.notes: FACS on HEK293/mPRLR cells

binder	binding result
H1H6782P (antibody, human IgG1, V domains shown) VH: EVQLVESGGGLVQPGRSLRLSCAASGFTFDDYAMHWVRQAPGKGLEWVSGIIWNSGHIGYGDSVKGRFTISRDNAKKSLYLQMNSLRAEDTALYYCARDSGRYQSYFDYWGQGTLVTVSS VL: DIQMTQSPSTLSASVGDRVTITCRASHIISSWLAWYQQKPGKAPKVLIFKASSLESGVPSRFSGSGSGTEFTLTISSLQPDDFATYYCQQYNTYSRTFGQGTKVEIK	no binding
H1H6958N2 (antibody, human IgG1, V domains shown, Tested with human IgG1 Fc (H1H); also called HIH6958N2) VH: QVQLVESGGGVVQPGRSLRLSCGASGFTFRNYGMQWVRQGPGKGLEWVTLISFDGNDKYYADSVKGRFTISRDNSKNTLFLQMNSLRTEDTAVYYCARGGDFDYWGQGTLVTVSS VL: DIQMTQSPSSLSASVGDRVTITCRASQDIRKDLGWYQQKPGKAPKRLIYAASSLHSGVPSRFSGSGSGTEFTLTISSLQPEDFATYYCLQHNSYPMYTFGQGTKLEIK	no binding
